The reader will find GI50 measurements below, all made with SK-Me15, melanoma.

CPD_SMILES: CCOC(=O)COc1cc(-c2ccccc2F)nc2cc3c(cc12)OCO3
UNIT: µM
RELATION_QUALIFIER: =
GI50: 72.4
//
CPD_SMILES: CCOC(=O)CCCOc1cc(-c2ccccc2F)nc2cc3c(cc12)OCO3
UNIT: µM
RELATION_QUALIFIER: =
GI50: 57.5
//
CPD_SMILES: Oc1cc(-c2ccccc2F)nc2ccc(N3CCCC3)cc12
UNIT: µM
RELATION_QUALIFIER: <
GI50: 0.01
//
CPD_SMILES: Fc1ccccc1-c1cc(=S)c2cc3c(cc2[nH]1)OCO3
UNIT: µM
RELATION_QUALIFIER: =
GI50: 4.07
//
CPD_SMILES: O=C(O)COc1cc(-c2ccccc2F)nc2cc3c(cc12)OCO3
UNIT: µM
RELATION_QUALIFIER: >
GI50: 100
//
CPD_SMILES: O=c1cc(-c2ccccc2F)[nH]c2cc3c(cc12)OCO3
UNIT: µM
RELATION_QUALIFIER: =
GI50: 0.0209

====

CPD_SMILES: CCOC(=O)CCCOc1cc(-c2ccccc2F)nc2cc3c(cc12)OCO3
melting point: 93 to 94 °C
--
CPD_SMILES: O=C(O)COc1cc(-c2ccccc2F)nc2cc3c(cc12)OCO3
melting point: > 300 °C
--
CPD_SMILES: O=C(O)CCCOc1cc(-c2ccccc2F)nc2cc3c(cc12)OCO3
melting point: > 300 °C
--
CPD_SMILES: CCOC(=O)COc1cc(-c2ccccc2F)nc2cc3c(cc12)OCO3
melting point: 119 to 120 °C

====

The reader will find GI50 measurements below, all made with HCT-116, colon cancer cell line.
METRIC: GI50 (µM)

CPD_SMILES: CC(C)(C)OC(=O)n1c(-c2ccccc2F)cc(=O)c2cc3c(cc21)OCO3
TEST_TARGET: HCT-116, colon cancer cell line
RELATION_QUALIFIER: =
MEASURED: 0.0447
//
CPD_SMILES: O=c1cc(-c2ccccc2F)[nH]c2cc3c(cc12)OCO3
TEST_TARGET: HCT-116, colon cancer cell line
RELATION_QUALIFIER: =
MEASURED: 0.0603
//
CPD_SMILES: Fc1ccccc1-c1cc(=S)c2cc3c(cc2[nH]1)OCO3
TEST_TARGET: HCT-116, colon cancer cell line
RELATION_QUALIFIER: =
MEASURED: 5.5
//
CPD_SMILES: CCOC(=O)COc1cc(-c2ccccc2F)nc2cc3c(cc12)OCO3
TEST_TARGET: HCT-116, colon cancer cell line
RELATION_QUALIFIER: =
MEASURED: 72.4
//
CPD_SMILES: O=C(O)COc1cc(-c2ccccc2F)nc2cc3c(cc12)OCO3
TEST_TARGET: HCT-116, colon cancer cell line
RELATION_QUALIFIER: >
MEASURED: 100
//
CPD_SMILES: CCOC(=O)CCCOc1cc(-c2ccccc2F)nc2cc3c(cc12)OCO3
TEST_TARGET: HCT-116, colon cancer cell line
RELATION_QUALIFIER: >
MEASURED: 100
